B1: FAM9B (parent)
chain: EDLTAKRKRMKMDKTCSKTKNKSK

Variants of: B1
Assay: protein stability index of a GFP-peptide fusion (GPS, HEK-293T) (PSI 1-6); higher = more stable;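 further: lentivirally expressed fusions sorted by FACS into six bins by GFP to DsRed ratio, PSI derived from sequencing read proportions per bin multiplied by bin number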
Conditions: c terminus: a fixed tail appended

{"columns": ["variant_name", "protein stability index"],
 "data": [
  ["S17Q", 5.34],
  ["M12F", 4.95],
  ["E1A", 4.77],
  ["R7T", 5.46],
  ["K14W", 4.73],
  ["D2L", 4.08],
  ["K22N", 4.83],
  ["C16W", 5.08],
  ["S17W", 5.02],
  ["T4M", 4.45],
  ["R7C", 5.26],
  ["K8Q", 3.39],
  ["K14A", 4.99],
  ["S17C", 5.05],
  ["T15E", 5.2],
  ["M12R", 4.72]
]}
